B1: TPR t1 (parent)
chain: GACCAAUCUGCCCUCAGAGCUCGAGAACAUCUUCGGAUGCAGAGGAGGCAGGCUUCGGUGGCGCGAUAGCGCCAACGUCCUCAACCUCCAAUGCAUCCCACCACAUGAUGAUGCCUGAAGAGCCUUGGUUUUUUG

- Variants of: B1
- experimental_protocol: polymerase ribozyme fitness, log enrichment relative to wild type (log ratio); higher = more active; in vitro selection for triplet polymerase activity
polymerase ribozyme fitness (log ratio) by entry:

mutation_code	polymerase ribozyme fitness (log ratio)
A37C A91G	-2.03
A16U C56G C115A	-4.04
C15U C62A C79A	-4.11
C4U G51U A121C	-1.96
C13A A43C G44A G77A A83U	-4.05
